target: HLA-A*0206 (human)
test_conditions: remark: other sources report otherwise
For each of the binders below, state its pIC50.
Answers are plain numbers, as −log10 of the molar value.

binder: FMLCAGLWV [peptide 1418.22, HuK2.195.V9]
pIC50: 7.29

Please turn your attention to the following entry.
What measured pIC50 goes with LLSNDMCARV [peptide 1418.53, HuK2.178.V10] ?
8.00
